Provenance of the data: ChEMBL document CHEMBL4270599

system: A549; experiment: Growth inhibition of human A549/ATCC cells assessed as cell growth at 10^-7 M incubated for 48 hrs by sulforhodamine B assay relative to control; type: functional; details: A549, 48 h, read-out: Activity
VALUE TYPE: growth at 0.1 µM

> print(dat)
                               smiles.input        value.type     result
1  C#C[C@@]1(O)[C@@H](CO)O[C@@H](n2cc(Br)c3c(N)ncnc32)[C@@H]1O  growth at 0.1 µM  48 to 80%
2  C#C[C@@]1(O)[C@@H](CO)O[C@@H](n2cc(Cl)c3c(N)ncnc32)[C@@H]1O  growth at 0.1 µM  61 to 77%
3  C#C[C@@]1(O)[C@@H](CO)O[C@@H](n2cc(I)c3c(N)ncnc32)[C@@H]1O  growth at 0.1 µM  69 to 80%

* * *

system: SNB-19; test: Growth inhibition of human SNB19 cells assessed as cell growth at 10^-7 M incubated for 48 hrs by sulforhodamine B assay relative to control; type: functional; conditions: SNB-19, 48 h, read-out: Activity
The entries below come with measured growth at 0.1 µM values attached.
VALUE TYPE: growth at 0.1 µM

> print(dat)
                               smiles.input        value.type     result
1  C#C[C@@]1(O)[C@@H](CO)O[C@@H](n2cc(Cl)c3c(N)ncnc32)[C@@H]1O  growth at 0.1 µM  12 to 70%
2  C#C[C@@]1(O)[C@@H](CO)O[C@@H](n2cc(Br)c3c(N)ncnc32)[C@@H]1O  growth at 0.1 µM   6 to 71%
3  C#C[C@@]1(O)[C@@H](CO)O[C@@H](n2cc(I)c3c(N)ncnc32)[C@@H]1O  growth at 0.1 µM  34 to 59%

* * *

The entries below come with measured growth at 1 µM values attached.
tested on: SR; assay: Growth inhibition of human SR cells assessed as cell growth at 10^-6 M incubated for 48 hrs by sulforhodamine B assay relative to control; type: functional; conditions: read-out: Activity
VALUE TYPE: growth at 1 µM

> print(dat)
                               smiles.input      value.type     result
1  C#C[C@@]1(O)[C@@H](CO)O[C@@H](n2cc(Cl)c3c(N)ncnc32)[C@@H]1O  growth at 1 µM    5 to 6%
2  C#C[C@@]1(O)[C@@H](CO)O[C@@H](n2cc(I)c3c(N)ncnc32)[C@@H]1O  growth at 1 µM  21 to 24%
3  C#C[C@@]1(O)[C@@H](CO)O[C@@H](n2cc(Br)c3c(N)ncnc32)[C@@H]1O  growth at 1 µM    7 to 9%

* * *

system: SK-OV-3; assay: Growth inhibition of human SKOV3 cells assessed as cell growth at 10^-8 M incubated for 48 hrs by sulforhodamine B assay relative to control; assay type: functional; settings: SK-OV-3, 48 h, read-out: Activity
VALUE TYPE: growth at 0.01 µM

> print(dat)
                               smiles.input     result
1  C#C[C@@]1(O)[C@@H](CO)O[C@@H](n2cc(Br)c3c(N)ncnc32)[C@@H]1O  91 to 93%
2  C#C[C@@]1(O)[C@@H](CO)O[C@@H](n2cc(I)c3c(N)ncnc32)[C@@H]1O  60 to 85%
3  C#C[C@@]1(O)[C@@H](CO)O[C@@H](n2cc(Cl)c3c(N)ncnc32)[C@@H]1O  84 to 94%

* * *

The entries below come with measured growth at 1 µM values attached.
test system: SK-MEL-28; assay: Growth inhibition of human SK-MEL-28 cells assessed as cell growth at 10^-6 M incubated for 48 hrs by sulforhodamine B assay relative to control; format: functional; conditions: SK-MEL-28, 48 h, read-out: Activity
VALUE TYPE: growth at 1 µM

> print(dat)
                               smiles.input     result
1  C#C[C@@]1(O)[C@@H](CO)O[C@@H](n2cc(Cl)c3c(N)ncnc32)[C@@H]1O  32 to 43%
2  C#C[C@@]1(O)[C@@H](CO)O[C@@H](n2cc(I)c3c(N)ncnc32)[C@@H]1O  62 to 78%
3  C#C[C@@]1(O)[C@@H](CO)O[C@@H](n2cc(Br)c3c(N)ncnc32)[C@@H]1O  61 to 68%

* * *

system: HOP-92; experiment: Growth inhibition of human HOP92 cells assessed as cell growth at 10^-8 M incubated for 48 hrs by sulforhodamine B assay relative to control; assay type: functional; details: HOP-92, 48 h, read-out: Activity
VALUE TYPE: growth at 0.01 µM

> print(dat)
                               smiles.input     result
1  C#C[C@@]1(O)[C@@H](CO)O[C@@H](n2cc(I)c3c(N)ncnc32)[C@@H]1O  58 to 74%
2  C#C[C@@]1(O)[C@@H](CO)O[C@@H](n2cc(Br)c3c(N)ncnc32)[C@@H]1O  90 to 94%
3  C#C[C@@]1(O)[C@@H](CO)O[C@@H](n2cc(Cl)c3c(N)ncnc32)[C@@H]1O  90 to 97%

* * *

The entries below come with measured TGI values attached.
test system: M14; experiment: Cytotoxicity against human M14 cells after 48 hrs by SRB assay; assay type: functional; details: M14, 48 h, read-out: TGI
VALUE TYPE: TGI

> print(dat)
                               smiles.input            result
1  C#C[C@@]1(O)[C@@H](CO)O[C@@H](n2cc(Br)c3c(N)ncnc32)[C@@H]1O   12.9 to 14.2 µM
2  C#C[C@@]1(O)[C@@H](CO)O[C@@H](n2cc(I)c3c(N)ncnc32)[C@@H]1O   8.47 to 10.7 µM
3  C#C[C@@]1(O)[C@@H](CO)O[C@@H](n2cc(Cl)c3c(N)ncnc32)[C@@H]1O  0.52 to 0.659 µM

* * *

test system: SF-295; test: Growth inhibition of human SF295 cells assessed as cell growth at 10^-7 M incubated for 48 hrs by sulforhodamine B assay relative to control; type: functional; conditions: SF-295, 48 h, read-out: Activity
VALUE TYPE: growth at 0.1 µM

> print(dat)
                               smiles.input     result
1  C#C[C@@]1(O)[C@@H](CO)O[C@@H](n2cc(I)c3c(N)ncnc32)[C@@H]1O  63 to 76%
2  C#C[C@@]1(O)[C@@H](CO)O[C@@H](n2cc(Br)c3c(N)ncnc32)[C@@H]1O  60 to 78%
3  C#C[C@@]1(O)[C@@H](CO)O[C@@H](n2cc(Cl)c3c(N)ncnc32)[C@@H]1O  66 to 77%

* * *

test system: LOX IMVI; assay: Growth inhibition of human LOXIMVI cells assessed as cell growth at 10^-8 M incubated for 48 hrs by sulforhodamine B assay relative to control; type: functional; conditions: read-out: Activity
VALUE TYPE: growth at 0.01 µM

> print(dat)
                               smiles.input         value.type     result
1  C#C[C@@]1(O)[C@@H](CO)O[C@@H](n2cc(I)c3c(N)ncnc32)[C@@H]1O  growth at 0.01 µM  85 to 93%
2  C#C[C@@]1(O)[C@@H](CO)O[C@@H](n2cc(Br)c3c(N)ncnc32)[C@@H]1O  growth at 0.01 µM  76 to 94%
3  C#C[C@@]1(O)[C@@H](CO)O[C@@H](n2cc(Cl)c3c(N)ncnc32)[C@@H]1O  growth at 0.01 µM  70 to 84%

* * *

system: MDA-MB-468; experiment: Cytotoxicity against human MDA-MB-468 cells after 48 hrs by SRB assay; type: functional; settings: MDA-MB-468, 48 h, read-out: TGI
VALUE TYPE: TGI

> print(dat)
                               smiles.input         result
1  C#C[C@@]1(O)[C@@H](CO)O[C@@H](n2cc(Br)c3c(N)ncnc32)[C@@H]1O  352 to 637 nM
2  C#C[C@@]1(O)[C@@H](CO)O[C@@H](n2cc(Cl)c3c(N)ncnc32)[C@@H]1O  451 to 751 nM
3  C#C[C@@]1(O)[C@@H](CO)O[C@@H](n2cc(I)c3c(N)ncnc32)[C@@H]1O  421 to 746 nM

* * *

test system: NCI-H460; assay: Cytotoxicity against human NCI-H460 cells after 48 hrs by SRB assay; format: functional; details: NCI-H460, 48 h, read-out: TGI
VALUE TYPE: TGI

> print(dat)
                               smiles.input           result
1  C#C[C@@]1(O)[C@@H](CO)O[C@@H](n2cc(Br)c3c(N)ncnc32)[C@@H]1O  1540 to 5270 nM
2  C#C[C@@]1(O)[C@@H](CO)O[C@@H](n2cc(I)c3c(N)ncnc32)[C@@H]1O  1670 to 2180 nM
3  C#C[C@@]1(O)[C@@H](CO)O[C@@H](n2cc(Cl)c3c(N)ncnc32)[C@@H]1O    226 to 753 nM
